Test system: 616215-338-R-J1-PDC complex spheroids, viability % test/control
TEST DESCRIPTION: Anticancer human tumor 616215-338-R-J1-PDC patient-derived colon adenocarcinoma cell line growth inhibition [CLK]
MEASUREMENT SETUP: second compound 0.0316 µM; first compound 0.00316 µM; stronger effect = lower value
Description: A high-throughput screen of multi-cell type tumor spheroids was designed to identify active combinations of […] and targeted small molecules. Complex spheroids include a stromal component modeled by human endothelial cells (HUVEC) and fibroblasts modeled by human mesenchymal stem cells (MSCs). […] Compounds. […] If the clinical Cmax for an agent had not been determined, the highest concentration tested was 10 microM. […]
What viability, T/C was measured for each of the following?
Numbers only, in %.

Examples with answers:
COMPOUND	EXPERIMENTAL TARGET	EXPERIMENTAL ENDPOINT	REPORTED VALUE
Cn1ncnc1[C@H]1c2n[nH]c(=O)c3cc(F)cc(c23)N[C@@H]1c1ccc(F)cc1 + CNC(=O)c1ccc(Nc2nc(OC3CCCC3)c3c(-c4ccc5nc(C)oc5c4)c[nH]c3n2)c(OC)c1	616215-338-R-J1-PDC complex spheroids, viability % test/control	viability, T/C	102
Cn1ncnc1[C@H]1c2n[nH]c(=O)c3cc(F)cc(c23)N[C@@H]1c1ccc(F)cc1 + CN1CCN(c2cc(C(=O)Nc3cc4cc(-c5cnn(C)c5)ccc4cn3)ccn2)CC1	616215-338-R-J1-PDC complex spheroids, viability % test/control	viability, T/C	99.7

Now let's try a different one.
What the record says about CCN1CCN(Cc2ccc(Nc3ncc(F)c(-c4cc(F)c5nc(C)n(C(C)C)c5c4)n3)nc2)CC1 + CN1CCN(c2cc(C(=O)Nc3cc4cc(-c5cnn(C)c5)ccc4cn3)ccn2)CC1 : viability, T/C is 111

---

Test system: 616215-338-R-J1-PDC complex spheroids, viability % test/control
TEST DESCRIPTION: Anticancer human tumor 616215-338-R-J1-PDC cell line growth inhibition [CLK]; active means viability on the fitted dose curve at most 10% of control; inactive means the rest;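 further: spheroids exposed to agents for 7 days; 100% = DMSO vehicle wells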
MEASUREMENT SETUP: second compound 1 µM; first compound 0.03 µM
Select the correct class. Options are active, inactive and nothing else.

Consider the following illustrative entries.
MOLECULE	EXPERIMENTAL TARGET	ASSIGNED LABEL
C=CC(=O)Nc1cc(Nc2nccc(-c3cn(C)c4ccccc34)n2)c(OC)cc1N(C)CCN(C)C + CNC(=O)c1ccc(Nc2nc(OC3CCCC3)c3c(-c4ccc5nc(C)oc5c4)c[nH]c3n2)c(OC)c1	616215-338-R-J1-PDC complex spheroids, viability % test/control	inactive
NC(=O)C(=Cn1cnc(-c2cc(C(F)(F)F)cc(C(F)(F)F)c2)n1)c1cncnc1 + CN1CCN(c2cc(C(=O)Nc3cc4cc(-c5cnn(C)c5)ccc4cn3)ccn2)CC1	616215-338-R-J1-PDC complex spheroids, viability % test/control	active
C=CC(=O)Nc1cc(Nc2nccc(-c3cn(C)c4ccccc34)n2)c(OC)cc1N(C)CCN(C)C + CN1CCN(c2cc(C(=O)Nc3cc4cc(-c5cnn(C)c5)ccc4cn3)ccn2)CC1	616215-338-R-J1-PDC complex spheroids, viability % test/control	active
CC(C)CC(NC(=O)C(Cc1ccccc1)NC(=O)c1cnccn1)B(O)O (stereo unspecified) + CN1CCN(c2cc(C(=O)Nc3cc4cc(-c5cnn(C)c5)ccc4cn3)ccn2)CC1	616215-338-R-J1-PDC complex spheroids, viability % test/control	active
NC(=O)C(=Cn1cnc(-c2cc(C(F)(F)F)cc(C(F)(F)F)c2)n1)c1cncnc1 + CNC(=O)c1ccc(Nc2nc(OC3CCCC3)c3c(-c4ccc5nc(C)oc5c4)c[nH]c3n2)c(OC)c1	616215-338-R-J1-PDC complex spheroids, viability % test/control	inactive

Shifting focus to the molecule that follows.
Query :: // param item: CC(C)CC(NC(=O)C(Cc1ccccc1)NC(=O)c1cnccn1)B(O)O (stereo unspecified) + CNC(=O)c1ccc(Nc2nc(OC3CCCC3)c3c(-c4ccc5nc(C)oc5c4)c[nH]c3n2)c(OC)c1 ; yields the recorded call
Result :: active

---

Tested on: 616215-338-R-J1-PDC complex spheroids, viability % test/control
TEST DESCRIPTION: Anticancer human tumor 616215-338-R-J1-PDC cell line growth inhibition [CLK];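 further: spheroids exposed to agents for 7 days; 100% = DMSO vehicle wells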
MEASUREMENT SETUP: second compound 0.1 µM; first compound 0.01 µM; stronger effect = lower value
EXPERIMENTAL ENDPOINT: viability, T/C

Sample records with viability, T/C:
COMPOUND	REPORTED VALUE
CCc1c2c(nc3ccc(O)cc13)-c1cc3c(c(=O)n1C2)COC(=O)[C@]3(O)CC + CNC(=O)c1ccc(Nc2nc(OC3CCCC3)c3c(-c4ccc5nc(C)oc5c4)c[nH]c3n2)c(OC)c1	51.3%
CCc1c2c(nc3ccc(O)cc13)-c1cc3c(c(=O)n1C2)COC(=O)[C@]3(O)CC + CN1CCN(c2cc(C(=O)Nc3cc4cc(-c5cnn(C)c5)ccc4cn3)ccn2)CC1	40.2%

Lookup result for Cn1ncnc1[C@H]1c2n[nH]c(=O)c3cc(F)cc(c23)N[C@@H]1c1ccc(F)cc1 + CNC(=O)c1ccc(Nc2nc(OC3CCCC3)c3c(-c4ccc5nc(C)oc5c4)c[nH]c3n2)c(OC)c1 ; measured viability, T/C: 54.5%

---

System: 616215-338-R-J1-PDC complex spheroids, viability % test/control
TEST DESCRIPTION: Anticancer human tumor 616215-338-R-J1-PDC cell line growth inhibition [CLK];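 further: spheroids exposed to agents for 7 days; 100% = DMSO vehicle wells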
MEASUREMENT SETUP: second compound 3.16 µM; first compound 0.0316 µM; stronger effect = lower value
EXPERIMENTAL ENDPOINT: viability, T/C

Past entries and their recorded results:
COMPOUND	viability, T/C
CCc1c2c(nc3ccc(O)cc13)-c1cc3c(c(=O)n1C2)COC(=O)[C@]3(O)CC + CNC(=O)c1ccc(Nc2nc(OC3CCCC3)c3c(-c4ccc5nc(C)oc5c4)c[nH]c3n2)c(OC)c1	17.1%
Nc1ccn(C2OC(CO)C(O)C2(F)F)c(=O)n1 (centres undefined) + CNC(=O)c1ccc(Nc2nc(OC3CCCC3)c3c(-c4ccc5nc(C)oc5c4)c[nH]c3n2)c(OC)c1	19.1%
CC(CO)NC(=O)c1cc(-c2ccc(Cl)cc2)nn(-c2cnn(C)c2)c1=O (centres undefined) + CN1CCN(c2cc(C(=O)Nc3cc4cc(-c5cnn(C)c5)ccc4cn3)ccn2)CC1	0.15%
CC(Nc1ccc2c(c1)OCCn1cc(N3C(=O)OCC3C(F)F)nc1-2)C(N)=O (centres undefined) + CNC(=O)c1ccc(Nc2nc(OC3CCCC3)c3c(-c4ccc5nc(C)oc5c4)c[nH]c3n2)c(OC)c1	35.2%

For each of the compounds below, state viability, T/C.
1. C#Cc1c(F)ccc2cc(O)cc(-c3ncc4c(N5CC6CCC(C5)N6)nc(OCC56CCCN5CC(F)C6)nc4c3F)c12 (centres undefined) + CN1CCN(c2cc(C(=O)Nc3cc4cc(-c5cnn(C)c5)ccc4cn3)ccn2)CC1
2. COc1c(OCCCN2CCOCC2)ccc2c3n(c(=NC(=O)c4cnc(N)nc4)nc12)CCN3 + CN1CCN(c2cc(C(=O)Nc3cc4cc(-c5cnn(C)c5)ccc4cn3)ccn2)CC1
3. COc1c(OCCCN2CCOCC2)ccc2c3n(c(=NC(=O)c4cnc(N)nc4)nc12)CCN3 + CNC(=O)c1ccc(Nc2nc(OC3CCCC3)c3c(-c4ccc5nc(C)oc5c4)c[nH]c3n2)c(OC)c1
4. CC1(C)CCC(CN2CCN(c3ccc(C(=O)NS(=O)(=O)c4ccc(NCC5CCOCC5)c([N+](=O)[O-])c4)c(Oc4cnc5[nH]ccc5c4)c3)CC2)=C(c2ccc(Cl)cc2)C1 + CNC(=O)c1ccc(Nc2nc(OC3CCCC3)c3c(-c4ccc5nc(C)oc5c4)c[nH]c3n2)c(OC)c1
5. CC(=O)O[C@H]1C(=O)[C@@]2(C)[C@H]([C@H](OC(=O)c3ccccc3)[C@]3(O)C[C@H](OC(=O)[C@H](O)[C@@H](NC(=O)c4ccccc4)c4ccccc4)C(C)=C1C3(C)C)[C@]1(OC(C)=O)CO[C@@H]1C[C@@H]2O + CN1CCN(c2cc(C(=O)Nc3cc4cc(-c5cnn(C)c5)ccc4cn3)ccn2)CC1
6. CC(=O)O[C@H]1C(=O)[C@@]2(C)[C@H]([C@H](OC(=O)c3ccccc3)[C@]3(O)C[C@H](OC(=O)[C@H](O)[C@@H](NC(=O)c4ccccc4)c4ccccc4)C(C)=C1C3(C)C)[C@]1(OC(C)=O)CO[C@@H]1C[C@@H]2O + CNC(=O)c1ccc(Nc2nc(OC3CCCC3)c3c(-c4ccc5nc(C)oc5c4)c[nH]c3n2)c(OC)c1

Result ::
0.13%
0.11%
21.4%
38.8%
0.05%
34.3%

For each listed entry, give its viability, T/C.
1. COC1C=CCC(C)C(C)S(=O)(=O)NC(=O)c2ccc3c(c2)N(CC2CCC21)CC1(CCCc2cc(Cl)ccc21)CO3 (centres undefined) + CNC(=O)c1ccc(Nc2nc(OC3CCCC3)c3c(-c4ccc5nc(C)oc5c4)c[nH]c3n2)c(OC)c1
2. Nc1ccccc1NC(=O)c1ccc(CNC(=O)OCc2cccnc2)cc1 + CNC(=O)c1ccc(Nc2nc(OC3CCCC3)c3c(-c4ccc5nc(C)oc5c4)c[nH]c3n2)c(OC)c1

Result ::
["41.6%", "35.1%"]
